Biological target: Alpha-1D adrenergic receptor (Homo sapiens); also: in other assays of this panel Not Active means under 50% inhibition at 10 µM
Sequence (P25100 whole entry): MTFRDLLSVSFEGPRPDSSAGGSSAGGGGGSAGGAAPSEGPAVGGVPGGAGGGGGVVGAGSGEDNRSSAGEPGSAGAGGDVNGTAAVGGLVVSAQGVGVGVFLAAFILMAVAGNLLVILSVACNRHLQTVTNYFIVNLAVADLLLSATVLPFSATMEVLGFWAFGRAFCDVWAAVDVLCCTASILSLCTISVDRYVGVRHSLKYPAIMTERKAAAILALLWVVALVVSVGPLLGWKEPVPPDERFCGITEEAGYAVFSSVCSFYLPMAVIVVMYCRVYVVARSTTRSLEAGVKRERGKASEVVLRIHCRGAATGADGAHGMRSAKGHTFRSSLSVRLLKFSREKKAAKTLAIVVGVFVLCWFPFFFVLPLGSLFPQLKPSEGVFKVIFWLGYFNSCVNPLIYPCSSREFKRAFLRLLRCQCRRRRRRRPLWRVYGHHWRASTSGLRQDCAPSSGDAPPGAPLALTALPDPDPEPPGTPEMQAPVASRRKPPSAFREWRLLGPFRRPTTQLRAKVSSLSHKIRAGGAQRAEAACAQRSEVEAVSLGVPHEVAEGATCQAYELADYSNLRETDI
Format: cell membranes, HEK293, Membrane
Details: read-out: IC50
endpoint.label: log10 of IC50 (log10 of the value in µM)

compound	log10 of IC50
CO[C@@H]1[C@@H](OC)[C@H](C)[C@@](O)(CC(=O)O)O[C@H]1[C@H](C)[C@H]1O[C@@]2(CC[C@@](C)([C@H]3CC[C@@](C)([C@@H]4O[C@@H]([C@H]5O[C@](C)(O)[C@H](C)C[C@@H]5C)C[C@@H]4O[C@@H]4C[C@H](OC)[C@@H](OC)[C@H](C)O4)O3)O2)C[C@H](O)[C@H]1C	0.05
Clc1ccc(COC(Cn2ccnc2)c2ccc(Cl)cc2Cl)cc1 (centres undefined)	0.95
COc1cc2nc(N3CCN(C(=O)C4CCCO4)CC3)nc(N)c2cc1OC (centres undefined)	-1.77
COc1cc(N)c(Cl)cc1C(=O)NC1CCN(CCCOc2ccc(F)cc2)CC1OC (centres undefined) [CISAPRIDE]	-0.72
Cc1c(C)c2c(c(C)c1O)CCC(C)(CN1CCN(c3cc(N4CCCC4)nc(N4CCCC4)n3)CC1)O2 (centres undefined)	1.43
Brc1c(NC2=NCCN2)ccc2nccnc12	0.24
CN1[C@@H]2CC[C@H]1C[C@@H](OC(=O)C(CO)c1ccccc1)C2 (some centres undefined)	0.13
Fc1ccc(C(c2ccc(F)cc2)N2CCN(C/C=C/c3ccccc3)CC2)cc1	0.03
CN(C)CC[C@@H](c1ccc(Cl)cc1)c1ccccn1	1.53

---

Biological target: Substance-K receptor (Homo sapiens, UniProt P21452); also: in other assays of this panel Not Active means under 50% inhibition at 10 µM
Sequence (P21452 whole entry): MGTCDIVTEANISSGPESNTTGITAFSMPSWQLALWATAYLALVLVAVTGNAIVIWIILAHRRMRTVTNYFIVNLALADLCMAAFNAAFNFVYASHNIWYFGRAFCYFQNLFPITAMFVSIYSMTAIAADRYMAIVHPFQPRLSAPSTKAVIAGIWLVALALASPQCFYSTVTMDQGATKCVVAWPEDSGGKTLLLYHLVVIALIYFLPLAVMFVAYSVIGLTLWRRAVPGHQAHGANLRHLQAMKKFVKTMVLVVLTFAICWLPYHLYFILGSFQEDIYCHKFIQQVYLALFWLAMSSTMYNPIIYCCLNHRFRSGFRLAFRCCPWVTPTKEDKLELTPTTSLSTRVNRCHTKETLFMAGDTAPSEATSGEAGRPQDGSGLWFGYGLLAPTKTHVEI
Type: cell membranes, CHO, Membrane
Details: cho; read-out: IC50
pIC50: −log10 of the molar value.
endpoint.label: pIC50

>>> df
   sequence_record  obs_value
0       GRAMICIDIN       5.34

---

Biological target: Muscarinic acetylcholine receptor M4 (Homo sapiens); also: in other assays of this panel Not Active means under 50% inhibition at 10 µM
Sequence (P08173 whole entry): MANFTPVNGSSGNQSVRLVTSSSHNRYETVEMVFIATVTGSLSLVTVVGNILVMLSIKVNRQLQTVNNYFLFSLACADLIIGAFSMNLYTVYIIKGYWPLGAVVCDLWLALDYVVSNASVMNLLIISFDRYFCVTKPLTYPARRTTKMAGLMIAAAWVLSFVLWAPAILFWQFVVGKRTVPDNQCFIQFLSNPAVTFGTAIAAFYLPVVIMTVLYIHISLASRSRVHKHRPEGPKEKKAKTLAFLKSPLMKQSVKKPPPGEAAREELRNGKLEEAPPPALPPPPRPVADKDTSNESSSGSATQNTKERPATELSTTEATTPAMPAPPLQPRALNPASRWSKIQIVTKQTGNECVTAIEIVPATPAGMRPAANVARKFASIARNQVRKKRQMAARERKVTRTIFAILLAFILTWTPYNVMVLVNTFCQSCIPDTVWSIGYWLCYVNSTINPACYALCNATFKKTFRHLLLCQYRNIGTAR
Format: cell membranes, CHO-K1, Membrane
Settings: cho-k1
endpoint.label: IC50

compound	assayed.target	endpoint.label	obs.value
Oc1c(Cl)cc(Cl)c(Cl)c1Cc1c(O)c(Cl)cc(Cl)c1Cl	Muscarinic acetylcholine receptor M4 (Homo sapiens)	IC50	Not Active
CN(C/C=C/C#CC(C)(C)C)Cc1cccc2ccccc12	Muscarinic acetylcholine receptor M4 (Homo sapiens)	IC50	Not Active
O=c1cnn([C@@H]2O[C@H](CO)[C@@H](O)[C@H]2O)c(=O)[nH]1	Muscarinic acetylcholine receptor M4 (Homo sapiens)	IC50	Not Active
O=C(O)c1cccnc1Nc1cccc(C(F)(F)F)c1	Muscarinic acetylcholine receptor M4 (Homo sapiens)	IC50	Not Active
CC(C)NCC(O)COc1cccc2[nH]ccc12 (configuration not stated)	Muscarinic acetylcholine receptor M4 (Homo sapiens)	IC50	Not Active
CC(=O)[C@@]1(O)CC[C@H]2[C@@H]3CCC4=CC(=O)CC[C@]4(C)[C@H]3CC[C@@]21C [HYDROXYPROGESTERONE]	Muscarinic acetylcholine receptor M4 (Homo sapiens)	IC50	Not Active
CC[C@@H](C(=O)[C@@H](C)[C@@H](O)[C@H](C)[C@@H]1O[C@@H]([C@@H](CC)C(=O)O)CC[C@@H]1C)[C@H]1O[C@]2(C=C[C@@H](O)[C@]3(CC[C@@](C)([C@H]4CC[C@](O)(CC)[C@H](C)O4)O3)O2)[C@H](C)C[C@@H]1C	Muscarinic acetylcholine receptor M4 (Homo sapiens)	IC50	Not Active
CCN(CC)CCNC(=O)c1cc(S(C)(=O)=O)ccc1OC [TIAPRIDE]	Muscarinic acetylcholine receptor M4 (Homo sapiens)	IC50	Not Active
NNc1nncc2ccccc12 [HYDRALAZINE]	Muscarinic acetylcholine receptor M4 (Homo sapiens)	IC50	Not Active
COC(=O)Nc1nc2ccc(C(=O)c3cccs3)cc2[nH]1	Muscarinic acetylcholine receptor M4 (Homo sapiens)	IC50	Not Active
C[C@H]1C[C@@H]2[C@H]([C@@H](O)C[C@@]3(C)[C@H]2CC[C@]3(O)C(=O)CO)[C@@]2(C)C=CC(=O)C=C12	Muscarinic acetylcholine receptor M4 (Homo sapiens)	IC50	Not Active
CC(C)=CCC/C(C)=C/CO	Muscarinic acetylcholine receptor M4 (Homo sapiens)	IC50	Not Active
Cc1c(C)c2c(c(C)c1O)CCC(C)(CN1CCN(c3cc(N4CCCC4)nc(N4CCCC4)n3)CC1)O2 (configuration not stated)	Muscarinic acetylcholine receptor M4 (Homo sapiens)	IC50	Not Active
NCCCC(O)(P(=O)(O)O)P(=O)(O)O	Muscarinic acetylcholine receptor M4 (Homo sapiens)	IC50	Not Active
O=C(O)c1cn(-c2ccc(F)cc2)c2cc(N3CCNCC3)c(F)cc2c1=O	Muscarinic acetylcholine receptor M4 (Homo sapiens)	IC50	Not Active
CC(=O)Oc1ccc(C(c2ccc(OC(C)=O)cc2)c2ccccn2)cc1	Muscarinic acetylcholine receptor M4 (Homo sapiens)	IC50	Not Active
O=C1Nc2ccc(Cl)cc2C(c2ccccc2Cl)=NC1O (configuration not stated)	Muscarinic acetylcholine receptor M4 (Homo sapiens)	IC50	Not Active
